Where these numbers come from: paper PMC5540273

- target.or.system: ACVRL1 (Homo sapiens)
- Sequence (P37023 22-503): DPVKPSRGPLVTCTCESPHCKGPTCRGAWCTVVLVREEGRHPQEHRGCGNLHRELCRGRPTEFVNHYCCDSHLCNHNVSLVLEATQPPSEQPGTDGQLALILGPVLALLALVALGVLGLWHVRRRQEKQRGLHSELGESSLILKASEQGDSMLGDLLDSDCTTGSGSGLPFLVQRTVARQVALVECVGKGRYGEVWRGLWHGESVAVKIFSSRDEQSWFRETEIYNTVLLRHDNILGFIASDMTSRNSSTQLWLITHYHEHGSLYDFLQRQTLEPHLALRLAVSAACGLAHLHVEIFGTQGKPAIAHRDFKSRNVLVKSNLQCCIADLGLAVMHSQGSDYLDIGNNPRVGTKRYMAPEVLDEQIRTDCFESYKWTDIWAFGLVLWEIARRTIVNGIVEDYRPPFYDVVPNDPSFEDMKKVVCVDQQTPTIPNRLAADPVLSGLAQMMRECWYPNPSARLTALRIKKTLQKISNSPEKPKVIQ
- experimental.protocol: KINOMEscan competition binding
- conditions.used: read-out: %Inh ACVRL1
measured.property: inhibition at 1 µM (%)
Numeric only. Scale: %

compound | recorded.measurement
Cc1ccc(NC(=O)Nc2cccc(C(F)(F)F)c2)cc1 [UNC10225187A] | 0
Cn1cc(-c2cnc(N)c3c(-c4ccc5c(c4)CCN5C(=O)Cc4ccccc4)csc23)cn1 [UNC10225012A] | 0
COc1cccc(OC)c1C(=O)Nc1cccc(-c2nn3ccccc3c2-c2ccnc(Nc3cccc(F)c3)n2)c1 [UNC10225310A] | 7
O=c1cc(N2CCOCC2)nc2n(Cc3cccc(Cl)c3Cl)c(C3CC3)nn12 [UNC10225469A] | 9

Proceeding to the next compound to report its inhibition at 1 µM.
Enquiry: I'd like to know its inhibition at 1 µM. The compound in question is CS(=O)(=O)Cc1ccc(Nc2nccc(-c3c(-c4cccc(NC(=O)C5CCCCC5)c4)nn4ncccc34)n2)cc1 [UNC10225159A]
Return: 0

* * *

- target.or.system: ERBB3 (Homo sapiens, UniProt P21860)
- Sequence (P21860 20-1342): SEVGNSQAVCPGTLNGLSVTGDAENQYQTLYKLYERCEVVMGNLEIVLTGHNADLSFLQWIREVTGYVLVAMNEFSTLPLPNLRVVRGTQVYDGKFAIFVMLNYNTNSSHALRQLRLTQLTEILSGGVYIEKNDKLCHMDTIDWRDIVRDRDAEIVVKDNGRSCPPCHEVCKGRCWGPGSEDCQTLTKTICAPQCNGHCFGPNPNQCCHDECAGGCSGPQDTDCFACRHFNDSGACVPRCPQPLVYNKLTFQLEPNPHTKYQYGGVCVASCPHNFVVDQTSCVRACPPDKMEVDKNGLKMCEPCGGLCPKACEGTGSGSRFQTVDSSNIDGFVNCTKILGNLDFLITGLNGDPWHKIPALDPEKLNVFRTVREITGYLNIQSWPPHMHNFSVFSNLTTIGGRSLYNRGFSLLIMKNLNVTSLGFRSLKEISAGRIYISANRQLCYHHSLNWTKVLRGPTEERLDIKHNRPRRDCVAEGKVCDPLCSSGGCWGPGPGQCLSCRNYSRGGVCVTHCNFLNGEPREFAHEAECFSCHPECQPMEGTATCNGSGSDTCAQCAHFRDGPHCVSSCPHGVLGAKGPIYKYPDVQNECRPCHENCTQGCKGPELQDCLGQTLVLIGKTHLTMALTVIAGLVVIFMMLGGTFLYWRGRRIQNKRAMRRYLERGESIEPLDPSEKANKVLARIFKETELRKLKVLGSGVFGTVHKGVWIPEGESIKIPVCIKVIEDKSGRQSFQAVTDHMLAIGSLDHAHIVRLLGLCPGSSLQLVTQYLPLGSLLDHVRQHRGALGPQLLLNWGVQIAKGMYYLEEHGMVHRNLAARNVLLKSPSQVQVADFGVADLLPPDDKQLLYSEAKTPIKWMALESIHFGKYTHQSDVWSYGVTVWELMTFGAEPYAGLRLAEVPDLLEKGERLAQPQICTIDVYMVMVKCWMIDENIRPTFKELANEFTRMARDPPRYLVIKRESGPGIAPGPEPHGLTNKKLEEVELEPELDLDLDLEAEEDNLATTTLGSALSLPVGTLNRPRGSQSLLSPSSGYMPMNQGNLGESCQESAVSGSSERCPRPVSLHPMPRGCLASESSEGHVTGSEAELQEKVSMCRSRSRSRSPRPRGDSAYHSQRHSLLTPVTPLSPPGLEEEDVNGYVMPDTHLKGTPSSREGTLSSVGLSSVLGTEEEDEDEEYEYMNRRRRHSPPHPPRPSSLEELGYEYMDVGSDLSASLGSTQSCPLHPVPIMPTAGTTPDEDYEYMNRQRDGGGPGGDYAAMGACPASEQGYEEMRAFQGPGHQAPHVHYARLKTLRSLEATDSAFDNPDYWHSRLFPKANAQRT
- experimental.protocol: KINOMEscan competition binding
- conditions.used: read-out: %Inh ERBB3
measured.property: inhibition at 1 µM (%)
Numeric only. Scale: %

For orientation, consider the following solved cases.
molecule | target.or.system | inhibition at 1 µM, %
COc1cccc(OC)c1C(=O)Nc1cccc(-c2nn3ccccc3c2-c2ccnc(Nc3cccc(F)c3)n2)c1 [UNC10225310A] | ERBB3 (Homo sapiens, UniProt P21860) | 0
Cn1cc(-c2cnc(N)c3c(-c4ccc5c(c4)CCN5C(=O)Cc4ccccc4)csc23)cn1 [UNC10225012A] | ERBB3 (Homo sapiens, UniProt P21860) | 4
O=c1cc(N2CCOCC2)nc2n(Cc3cccc(Cl)c3Cl)c(C3CC3)nn12 [UNC10225469A] | ERBB3 (Homo sapiens, UniProt P21860) | 9

Enquiry: I'd like to know its inhibition at 1 µM. The molecule in question is Cc1ccc(NC(=O)Nc2cccc(C(F)(F)F)c2)cc1 [UNC10225187A]
Return: 17

Enquiry: I'd like to know its inhibition at 1 µM. The molecule in question is CS(=O)(=O)Cc1ccc(Nc2nccc(-c3c(-c4cccc(NC(=O)C5CCCCC5)c4)nn4ncccc34)n2)cc1 [UNC10225159A]
Return: 22

* * *

- target.or.system: CSNK1G3 (Homo sapiens)
- Sequence (Q9Y6M4 whole entry): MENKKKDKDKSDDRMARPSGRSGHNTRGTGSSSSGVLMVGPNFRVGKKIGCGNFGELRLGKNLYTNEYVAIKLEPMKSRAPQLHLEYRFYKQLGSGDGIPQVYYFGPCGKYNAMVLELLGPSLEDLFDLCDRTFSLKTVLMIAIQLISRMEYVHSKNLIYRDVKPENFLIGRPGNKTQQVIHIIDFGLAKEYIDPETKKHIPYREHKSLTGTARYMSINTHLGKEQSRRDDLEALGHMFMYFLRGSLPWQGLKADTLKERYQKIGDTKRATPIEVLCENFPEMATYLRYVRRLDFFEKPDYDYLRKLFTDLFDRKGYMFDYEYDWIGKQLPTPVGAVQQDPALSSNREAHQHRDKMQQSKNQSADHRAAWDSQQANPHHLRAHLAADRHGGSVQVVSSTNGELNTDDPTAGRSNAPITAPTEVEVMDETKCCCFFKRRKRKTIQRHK
- experimental.protocol: KINOMEscan competition binding
- conditions.used: read-out: %Inh CSNK1G3
measured.property: inhibition at 1 µM (%)
Numeric only. Scale: %

Enquiry: I'd like to know its inhibition at 1 µM. The compound in question is CS(=O)(=O)Cc1ccc(Nc2nccc(-c3c(-c4cccc(NC(=O)C5CCCCC5)c4)nn4ncccc34)n2)cc1 [UNC10225159A]
Return: 4

Enquiry: I'd like to know its inhibition at 1 µM. The compound in question is Cc1ccc(NC(=O)Nc2cccc(C(F)(F)F)c2)cc1 [UNC10225187A]
Return: 0

Enquiry: I'd like to know its inhibition at 1 µM. The compound in question is O=c1cc(N2CCOCC2)nc2n(Cc3cccc(Cl)c3Cl)c(C3CC3)nn12 [UNC10225469A]
Return: 23

Enquiry: I'd like to know its inhibition at 1 µM. The compound in question is Cn1cc(-c2cnc(N)c3c(-c4ccc5c(c4)CCN5C(=O)Cc4ccccc4)csc23)cn1 [UNC10225012A]
Return: 22

Enquiry: I'd like to know its inhibition at 1 µM. The compound in question is COc1cccc(OC)c1C(=O)Nc1cccc(-c2nn3ccccc3c2-c2ccnc(Nc3cccc(F)c3)n2)c1 [UNC10225310A]
Return: 3
